measurement-parameters: in dichloromethane, 303.45 K
parameter: solubility (mole fraction)
Hey, just send me the number, nothing else.

Task item: solubility (mole fraction) for O=[PH](O)c1ccccc1 ?
Reply: 0.0709

* * *

measurement-parameters: in toluene, 323.25 K
parameter: solubility (mole fraction)
Hey, just send me the number, nothing else.

Task item: solubility (mole fraction) for CP(=O)(O)c1ccccc1 ?
Reply: 0.327

* * *

measurement-parameters: in water, 338.25 K
parameter: solubility (mole fraction)

Task item: solubility (mole fraction) for O=[PH](O)c1ccccc1 ?
Reply: 0.161

* * *

measurement-parameters: in water, 309.93 K
parameter: solubility (mole fraction)
Hey, just send me the number, nothing else.

Task item: solubility (mole fraction) for O=[PH](O)c1ccccc1 ?
Reply: 0.0218

Reference source for all entries: BigSolDB 2.1
